src = the supplement of paper PMC10065799

# Tested on: AncSZ
# EXPERIMENTAL PROTOCOL: phosphorylation enrichment, bacterial display (enrichment ratio); higher = better substrate or ligand; peptides without Tyr show the background
READOUT NAME: phosphorylation enrichment
// no unit, no text: just the number

Answered examples (3):
# BIOSEQUENCE, phosphorylation enrichment
measured = [
    ("AGTILSHAHLD [ASS1_Y291_Y291S]", 0.75),
    ("EVDETYVPKEF [ALB_Y521]", 1.22),
    ("ERWLKYFPNEQ [HS3ST5_Y244_I247N]", 1.09),
]

Query :: Param request: phosphorylation enrichment | system AncSZ | item EVRTQYEEIAQ [KRT76_Y361_A359T]
Result :: 1.08

Query :: Find phosphorylation enrichment for GAVGNYSGGLA [MGMT_Y158] on AncSZ and write it down.
Result :: 0.57

Query :: Retrieve phosphorylation enrichment on AncSZ; query SVAVPYEPPEV [TP53_Y220_V217A]
Result :: 1.31

Query :: GET phosphorylation enrichment | system: AncSZ | item: VGRVGYVSGWG [HP_Y280]
Result :: 0.781

###

# TARGET: Hck (UniProt P08631)
# Sequence (P08631 whole entry, looked up): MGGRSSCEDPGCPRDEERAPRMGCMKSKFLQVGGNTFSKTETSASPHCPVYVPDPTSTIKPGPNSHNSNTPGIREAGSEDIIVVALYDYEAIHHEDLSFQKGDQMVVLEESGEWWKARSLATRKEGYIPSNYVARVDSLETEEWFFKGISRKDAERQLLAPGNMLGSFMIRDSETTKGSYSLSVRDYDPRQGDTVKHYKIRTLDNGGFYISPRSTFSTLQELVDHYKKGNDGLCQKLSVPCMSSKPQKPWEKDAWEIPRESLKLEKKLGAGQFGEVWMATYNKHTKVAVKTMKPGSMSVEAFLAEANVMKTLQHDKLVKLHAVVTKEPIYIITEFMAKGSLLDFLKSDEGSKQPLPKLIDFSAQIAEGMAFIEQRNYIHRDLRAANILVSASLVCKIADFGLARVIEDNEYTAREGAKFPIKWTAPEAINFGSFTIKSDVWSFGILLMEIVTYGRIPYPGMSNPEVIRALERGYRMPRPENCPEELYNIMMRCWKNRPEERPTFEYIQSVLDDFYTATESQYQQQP
# EXPERIMENTAL PROTOCOL: phosphorylation enrichment, bacterial display (enrichment ratio); higher = better substrate or ligand; peptides without Tyr show the background
List of phosphorylation enrichment values.
Respond using a number only.

# BIOSEQUENCE, TARGET, phosphorylation enrichment
records = [
    ("NVADHYGVFKP [ATP6V0D2_Y271_YF]", "Hck (UniProt P08631)", 3.18),
]

Query :: Indicate the recorded phosphorylation enrichment value for this sequence: GDFFCYLAEVA [YWHAG_Y133_R132C_YF]
Result :: 0.608

Query :: Give phosphorylation enrichment for LKGQVYILGGE [ASS1_Y359_R363G]
Result :: 0.824

Query :: Read the entry KMGNIYRTEFG [MRPL3_Y265_YF] and write its reported phosphorylation enrichment.
Result :: 0.488

Query :: Using known records, supply phosphorylation enrichment for FECKWYIPLTD [BCR_Y756_D752E_YF]
Result :: 0.538

Query :: Look up phosphorylation enrichment of TPSGNYVACGG [GNB1_Y111_A106T] and report it.
Result :: 0.488

Query :: Give the measured phosphorylation enrichment for LKSEMYQKLLK [RGS13_Y146]
Result :: 0.78

Query :: Provide measured phosphorylation enrichment value, entry: SARHHYESLQT [BIN1_Y157]
Result :: 0.446

Query :: Please indicate phosphorylation enrichment recorded for KVVNEYVTKGQ [MYH7_Y410_G407V]
Result :: 0.402

Query :: Provide measured phosphorylation enrichment value, entry: RAIGHYSATSK [FAM120A_Y328_Y327H]
Result :: 0.942

Query :: Respond only with phosphorylation enrichment recorded for DAICFYRMENA [NPHS2_Y195_YF]
Result :: 0.624

Query :: Tell us which phosphorylation enrichment value is on record for MGGSLYFSFPD [HIKESHI_Y55_V54L_YF]
Result :: 4.95

Query :: Complete the entry with phosphorylation enrichment for RSRSPYSPVFR [CDK13_Y399_L403F]
Result :: 0.736

Query :: Write down phosphorylation enrichment measured for item SGPRRYTIATL [TTR_Y125_A129T]
Result :: 0.372

Query :: Identify phosphorylation enrichment associated with the sequence QPAGNYSLSSV [ARFGAP3_Y473]
Result :: 0.715

Query :: Please report the measured phosphorylation enrichment for EATKGHLDDPT [G6PD_Y322_Y322H]
Result :: 0.496

Query :: Give recorded phosphorylation enrichment. RMSSSYPTGLA [ADM_Y52]
Result :: 0.509

Query :: Give phosphorylation enrichment for RHTRSYDFMEG [FGF7_Y56_YF]
Result :: 0.857

Query :: Identify measured phosphorylation enrichment associated with VKALKYKSMKI [ITGA11_Y1098_L1093V]
Result :: 0.31

Query :: State its phosphorylation enrichment for this sequence: EALSLYTKLMN [STAM_Y371]
Result :: 0.505

###

# Test system: c-Abl (mouse)
# EXPERIMENTAL PROTOCOL: phosphorylation enrichment, bacterial display (enrichment ratio); higher = better substrate or ligand; peptides without Tyr show the background
READOUT NAME: phosphorylation enrichment
Write the value as a bare number.

Solved entries:
# BIOSEQUENCE, phosphorylation enrichment
records = [
    ("LIHTKYPQLLP [AHCY_Y143]", 0.575),
    ("FSNPAYYVLEG [INPPL1_Y986_N982S]", 0.591),
    ("DYTEAYNSKIK [CLK1_Y305_P307S]", 0.584),
    ("ALAHEYHGGGG [HBB_Y146_K145E]", 0.493),
    ("FQCLRYIKQLG [SAMHD1_Y146_R143C]", 0.809),
    ("IIGNGYYFRVF [MYBPC3_Y1135]", 0.775),
]

Query :: Give phosphorylation enrichment for PADSGYPAFLG [ATP6V1A_Y374_YF]
Result :: 1.12

Query :: Return phosphorylation enrichment for the following sequence: HSKGIYFVQLE [MGAT4B_Y262_Q257H_YF]
Result :: 1.31

Query :: Quote phosphorylation enrichment reported for VDSNPYSHLMA [UBA5_Y53_R55H] please.
Result :: 0.504

Query :: Note phosphorylation enrichment for the sequence shown: KNSFKYYMSDD [ATRX_Y203_C200S]
Result :: 0.671

###

# TARGET: FGFR3 (UniProt P22607)
# Sequence (P22607 whole entry, looked up): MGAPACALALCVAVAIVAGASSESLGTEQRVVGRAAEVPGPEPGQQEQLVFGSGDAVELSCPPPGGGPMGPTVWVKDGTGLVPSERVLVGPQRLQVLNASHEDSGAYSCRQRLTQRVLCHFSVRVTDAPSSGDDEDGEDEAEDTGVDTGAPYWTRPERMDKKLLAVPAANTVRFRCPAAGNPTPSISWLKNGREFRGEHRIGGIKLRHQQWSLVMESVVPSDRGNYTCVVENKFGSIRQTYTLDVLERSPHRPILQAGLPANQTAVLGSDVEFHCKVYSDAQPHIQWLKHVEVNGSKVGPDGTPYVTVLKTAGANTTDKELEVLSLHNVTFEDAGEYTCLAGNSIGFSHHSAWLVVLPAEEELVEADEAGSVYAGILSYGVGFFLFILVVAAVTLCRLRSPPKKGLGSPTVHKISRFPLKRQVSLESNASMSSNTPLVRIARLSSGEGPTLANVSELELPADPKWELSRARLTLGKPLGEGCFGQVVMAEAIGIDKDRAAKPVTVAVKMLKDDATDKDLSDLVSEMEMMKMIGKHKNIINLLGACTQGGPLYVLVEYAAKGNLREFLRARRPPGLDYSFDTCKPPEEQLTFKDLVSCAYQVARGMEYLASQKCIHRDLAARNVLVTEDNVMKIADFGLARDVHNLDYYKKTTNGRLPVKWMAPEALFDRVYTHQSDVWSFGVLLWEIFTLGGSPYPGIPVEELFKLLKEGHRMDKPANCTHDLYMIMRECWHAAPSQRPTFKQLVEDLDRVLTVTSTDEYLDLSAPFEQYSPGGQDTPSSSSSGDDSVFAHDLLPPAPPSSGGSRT
# EXPERIMENTAL PROTOCOL: phosphorylation enrichment, bacterial display (enrichment ratio); higher = better substrate or ligand; peptides without Tyr show the background
// phosphorylation enrichment lookup, one value per entry
Lab note: jot down the number only; don't add units.

# BIOSEQUENCE, phosphorylation enrichment
records = [
    ("TLNVRYESVQA [CEACAM7_Y236]", 0.617),
]

Query :: Please report phosphorylation enrichment for the following sequence: LVIIKYLPEWT [PSEN1_Y240_F237I]
Result :: 2.62

Query :: Consider the sequence TTKGAYSLSIR [YES1_Y194] and give its recorded phosphorylation enrichment.
Result :: 0.395

Query :: Hello, please tell me recorded phosphorylation enrichment for this one: ADNSAYLMGLN [MYH7_Y386_K383N]
Result :: 0.61

Query :: Item HSKGIYFVQLE [MGAT4B_Y262_Q257H_YF] : provide phosphorylation enrichment
Result :: 1.75

Query :: Supply reported phosphorylation enrichment belonging to this sequence: AVAFLYYKSIG [ADGRL4_Y301_V300L]
Result :: 0.796

Query :: Quick one: give measured phosphorylation enrichment for AHAGEHGAEAL [HBA1_Y25_Y25H]
Result :: 0.451

Query :: Complete the entry with phosphorylation enrichment for LITILYIGFLG [KCNQ1_Y267_T265I]
Result :: 1.31

###

# System: c-Abl (mouse)
# EXPERIMENTAL PROTOCOL: phosphorylation enrichment, bacterial display (enrichment ratio); higher = better substrate or ligand; peptides without Tyr show the background
Measured phosphorylation enrichment by item
Keep it simple and answer with nothing but the number.

# BIOSEQUENCE, TARGET, phosphorylation enrichment
records = [
    ("AEPTGYSAELS [EZR_Y499]", "c-Abl (mouse)", 0.799),
    ("SVMVPYEPPEV [TP53_Y220_V217M]", "c-Abl (mouse)", 0.804),
]

Query :: Give phosphorylation enrichment only, for VRFMAYTDETF [F8_Y450] , using c-Abl (mouse) data.
Result :: 0.789

###

SH2 binding enrichment: recorded values
# TARGET: c-Src SH2;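 further: peptide library displayed on the E. coli surface as eCPX fusions, selected cells deep-sequenced, score is each peptide's frequency after selection divided by its frequency in the input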
# EXPERIMENTAL PROTOCOL: SH2 binding enrichment of the phosphorylated peptide, bacterial display (enrichment ratio); higher = better substrate or ligand; peptides without Tyr show the background
Form field (numeric): enter value without unit.

# BIOSEQUENCE, QUANTITATIVE RESULT
data = [
    ("PFRQWYESHFA [RPS8_Y113_YF]", 1.07),
]

Query :: Report measured SH2 binding enrichment; entry is FKPGFYNLKEK [LAMA1_Y490_C485Y_YF]
Result :: 0.383

Query :: Report measured SH2 binding enrichment; entry is QEIATYRRLQE [KRT14_Y415_L419Q]
Result :: 0.475

Query :: Quickly give me recorded SH2 binding enrichment for RIVEIYSRRLQ [GCH1_Y175]
Result :: 0.617

Query :: Give SH2 binding enrichment for FRIGPYQPSVP [MATR3_Y784_N787S_YF]
Result :: 0.657

Query :: Consider the sequence YGTAQYCCRMG [LRRK2_Y2023_I2020T] . State its measured SH2 binding enrichment.
Result :: 0.823

Query :: Fill in reported SH2 binding enrichment for this entry: GITTGYLVLKE [DNMT3B_Y588_A585T]
Result :: 0.746
